Source of measurements: patent US12378204B2

Could you please report measured CC50 at 48 h for the items listed next?
Method description: In vitro cytotoxicity assay in HepG2 cells, CCK-8 method
Assay type: cell-based
Condition: human, 48 h incubation

>>> df
                                   compound       readout  readout_value
0  CN(C(=O)Cc1c(-c2ccc(O[C@H]3CCC[C@H](C(=O)O)C3)cc2)nnn1C)C1CCCC1 (racemic)  CC50 at 48 h       > 200 µM
1  CN(Cc1ccccc1)C(=O)OCc1c(-c2ccc(OCCC(=O)O)cc2)nnn1C  CC50 at 48 h       > 200 µM
2  Cn1nnc(-c2ccc(O[C@H]3CCC[C@H](C(=O)O)C3)cc2)c1CNC(=O)Cc1ccccc1  CC50 at 48 h       > 200 µM
3  Cn1nnc(-c2ccc(O[C@H]3CCC[C@H](C(=O)O)C3)cc2)c1CNC(=O)C1CCCC1 (racemic)  CC50 at 48 h       > 200 µM
4  Cn1nnc(-c2ccc(O[C@H]3CCC[C@H](C(=O)O)C3)cc2)c1NCc1ccccc1 (racemic)  CC50 at 48 h       > 200 µM
5  Cn1nnc(-c2ccc(O[C@H]3CCC[C@H](C(=O)O)C3)cc2)c1-c1cn(Cc2ccccc2)c(=O)o1  CC50 at 48 h       > 200 µM

# evaluate next
(Q) Consider the compound CN(C(=O)CCc1nnn(C)c1-c1ccc(O[C@H]2CCC[C@H](C(=O)O)C2)c(C(F)(F)F)n1)C1CCCC1 (racemic) and give its recorded CC50 at 48 h.
(A) > 200 µM

====

System: hLPAR1 (human lysophosphatidic acid receptor 1) (Homo sapiens, UniProt Q92633)
Sequence (Q92633 whole entry): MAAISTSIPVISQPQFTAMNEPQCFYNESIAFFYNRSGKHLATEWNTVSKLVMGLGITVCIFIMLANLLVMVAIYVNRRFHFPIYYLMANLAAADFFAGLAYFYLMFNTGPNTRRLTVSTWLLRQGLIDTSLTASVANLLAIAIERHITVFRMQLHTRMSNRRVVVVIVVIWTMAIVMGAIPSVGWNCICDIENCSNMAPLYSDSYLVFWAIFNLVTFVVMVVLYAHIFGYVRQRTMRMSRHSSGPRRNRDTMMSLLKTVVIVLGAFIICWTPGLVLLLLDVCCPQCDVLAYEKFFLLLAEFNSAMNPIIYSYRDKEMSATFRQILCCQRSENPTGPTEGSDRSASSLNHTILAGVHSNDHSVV
Method description: FLIPR intracellular calcium assay, hLPAR1 expressed in CHO-K1 cells
Condition: antagonism of 1 μM LPA-induced calcium increase, CHO-K1 cells expressing hLPAR1; read-out: LPAR1 IC50
Method: The antagonist property of the compounds disclosed herein was determined using the FLIPR (fluorescence imaging plate reader) method, wherein the compounds are inhibitors for the intracellular calcium increase induced by activation of hLPAR1 (human lysophosphatidic acid receptor 1, accession No. NM_001401.4) expressed in CHO-K1 cells (Chinese hamster ovary cells K1, ATCC). […]
Could you please report measured IC50 for the items listed next?

Quick one: give me IC50 for each item below, same order please.
1. CN(C(=O)NCc1c(-c2ccc(O[C@H]3CCC[C@H](C(=O)O)C3)cc2)nnn1C)C1CCCC1 (racemic) [Compound 30]
2. CN(Cc1ccccc1)C(=O)NCc1c(-c2ccc(O[C@H]3CCC[C@H](C(=O)O)C3)cc2)nnn1C (racemic) [Compound 1]
3. Cn1nnc(-c2ccc(O[C@H]3CCC[C@H](C(=O)O)C3)cc2)c1C1CN(Cc2ccccc2)C(=O)O1 (stereo partly shown) [Compound 9]

(A)
1: 50 to 300 nM; 2: 50 to 300 nM; 3: 50 to 300 nM

(Q) Consider the compound Cc1nnn(-c2ccc(O[C@H]3CCC[C@H](C(=O)O)C3)cc2)c1N(C)C(=O)OC1CCCC1 (racemic) [Compound 34] and give its recorded IC50.
(A) 300 to 10000 nM

====

Test system: A2058 (human melanoma cells)
Method description: A2058 cell scratch assay (cell migration inhibition)
Format: cell-based
Condition: A2058 scratch area 0 h vs 24 h, 10 μM LPA, read-out: Cell migration inhibition rate
Readout: inhibition

In [3]: df
Out[3]:
                                   molecule  readout_value
0  CN(Cc1ccccc1)C(=O)OCc1c(-c2ccc(O/C=C/C(=O)O)cc2)nnn1C      30 to 50%

Quick one: give me inhibition for each item below, same order please.
1. Cn1nnc(-c2ccc(O[C@H]3CCC[C@H](C(=O)O)C3)cc2)c1C1CN(Cc2ccccc2)C(=O)O1 (stereo partly shown)
2. CN(C(=O)CCc1nnn(C)c1-c1ccc(O[C@H]2CCC[C@H](C(=O)O)C2)c(C(F)(F)F)n1)C1CCCC1 (racemic)

(A)
30 to 50%
0 to 30%

(Q) Consider the molecule Cn1nnc(-c2ccc(O[C@H]3CCC[C@H](C(=O)O)C3)cc2)c1CNS(=O)(=O)c1ccccc1 (racemic) and give its recorded inhibition.
(A) 30 to 50%

====

Could you please report measured inhibition for the items listed next?
Test system: A2058 (human melanoma cells)
Method description: A2058 cell scratch assay (cell migration inhibition)
Format: cell-based
Condition: A2058 scratch area 0 h vs 24 h, 10 μM LPA, read-out: Cell migration inhibition rate

>>> df
                                   molecule     readout  readout_value
0  CN(Cc1ccccc1)C(=O)OCc1cn(-c2ccc(O[C@H]3CCC[C@H](C(=O)O)C3)cc2)nn1 (racemic)  inhibition      30 to 50%

Quick one: give me inhibition for each item below, same order please.
1. Cn1nnc(-c2ccc(O[C@H]3CCC[C@H](C(=O)O)C3)cc2)c1CNC(=O)Cc1ccccc1
2. CN(Cc1c(-c2ccc(O[C@H]3CCC[C@H](C(=O)O)C3)cc2)nnn1C)C(=O)OCc1ccccc1
3. CN(C(=O)NCc1c(-c2ccc(O[C@H]3CCC[C@H](C(=O)O)C3)c(F)c2)nnn1C)C1CCCC1
4. Cn1nnc(-c2ccc(O[C@H]3CCC[C@H](C(=O)O)C3)cc2)c1-c1cn(Cc2ccccc2)c(=O)o1
5. Cn1nnc(-c2ccc(O[C@H]3CCC[C@H](C(=O)O)C3)cc2)c1Cn1ccn(Cc2ccccc2)c1=O (racemic)
6. CC(C)OCc1c(-c2ccc(O[C@H]3CCC[C@H](C(=O)O)C3)cc2)nnn1C (racemic)

(A)
["30 to 50%", "30 to 50%", "30 to 50%", "0 to 30%", "30 to 50%", "30 to 50%"]

====

Method description: In vitro metabolic stability, rat liver microsomes
Assay type: in vitro ADME
Condition: 1 mg/mL liver microsome protein, 37° C.
Readout: half-life

Solved entries (count: 6):
>>> print(df.to_string())
                                   compound    readout  readout_value
0  CN(Cc1ccccc1)C(=O)CCc1c(-c2ccc(O[C@H]3CCC[C@H](C(=O)O)C3)cc2)nnn1C (racemic) [Compound 3]  half-life       > 30 min
1  CN(C(=O)CCc1c(-c2ccc(O[C@H]3CCC[C@H](C(=O)O)C3)c(C(F)(F)F)n2)nnn1C)C1CCCC1 (racemic) [Compound 27-A]  half-life         57 min
2  CN(Cc1ccccc1)C(=O)OCc1c(-c2ccc(Oc3cc(Cl)ccc3C(=O)O)cc2)nnn1C [Compound 7]  half-life       < 30 min
3  CN(Cc1ccccc1)C(=O)/C=C/c1c(-c2ccc(O[C@H]3CCC[C@H](C(=O)O)C3)cc2)nnn1C (racemic) [Compound 2]  half-life       > 30 min
4  CN(C(=O)NCc1c(-c2ccc(O[C@H]3CCC[C@H](C(=O)O)C3)c(C(F)(F)F)n2)nnn1C)C1CCCC1 (racemic) [Compound 26]  half-life       > 30 min
5  CN(C(=O)NCc1c(-c2ccc(O[C@H]3CCC[C@H](C(=O)O)C3)c(F)c2)nnn1C)C1CCCC1 [Compound 25]  half-life       > 30 min

# evaluate next
(Q) Consider the compound CN(C(=O)OC1CCCC1)c1c(-c2ccc(O[C@H]3CCC[C@H](C(=O)O)C3)cc2)nnn1C (racemic) [Compound 31] and give its recorded half-life.
(A) > 30 min

====

System: UniProtKB Q92633
Method description: FLIPR intracellular calcium assay, hLPAR1 expressed in CHO-K1 cells
Condition: antagonism of 1 μM LPA-induced calcium increase, CHO-K1 cells expressing hLPAR1; read-out: LPAR1 IC50
pIC50: −log10 of the molar value.
Could you please report measured pIC50 for the items listed next?

Solved entries (count: 6):
>>> df
                                   compound  readout  readout_value
0  Cn1nnc(-c2ccc(O[C@H]3CCC[C@H](C(=O)O)C3)cc2)c1CNC(=O)Cc1ccccc1    pIC50   6.52 to 7.30
1  Cn1nnc(-c2ccc(O[C@H]3CCC[C@H](C(=O)O)C3)cc2)c1COCc1ccccc1 (racemic)    pIC50   6.52 to 7.30
2  CN(Cc1ccccc1)C(=O)OCc1cn(-c2ccc(O[C@H]3CCC[C@H](C(=O)O)C3)cc2)nn1 (racemic)    pIC50   6.52 to 7.30
3  Cn1nnc(-c2ccc(O[C@H]3CCC[C@H](C(=O)O)C3)c(C(F)(F)F)n2)c1C1CN(C2CCCC2)C(=O)O1 (stereo partly shown)    pIC50   5.00 to 6.52
4  CN(Cc1ccccc1)C(=O)OCc1c(-c2ccc(N[C@H]3CCC[C@H](C(=O)O)C3)cc2)nnn1C    pIC50   6.52 to 7.30
5  CN(C(=O)OCc1c(-c2ccc(O[C@H]3CCC[C@H](C(=O)O)C3)cc2)nnn1C1CC1)C1CCCC1    pIC50   5.00 to 6.52

Quick one: give me pIC50 for each item below, same order please.
1. CC(C)OCc1c(-c2ccc(O[C@H]3CCC[C@H](C(=O)O)C3)cc2)nnn1C (racemic)
2. Cn1nnc(-c2ccc(O[C@H]3CCC[C@H](C(=O)O)C3)c(C(F)(F)F)n2)c1CNC(=O)OC1CCCC1 (racemic)
3. Cn1nnc(-c2ccc(O[C@H]3CCC[C@H](C(=O)O)C3)cc2)c1CN1CCN(Cc2ccccc2)C1=O (racemic)
4. CN(Cc1ccccc1)C(=O)OCc1c(C2CC2O[C@H]2CCC[C@H](C(=O)O)C2)nnn1C (mixture of isomers)
5. Cc1ncc(-c2c(-c3ccc(O[C@H]4CCC[C@H](C(=O)O)C4)cc3)nnn2C)o1 (racemic)
6. CN(Cc1ccccc1)C(=O)CCc1c(-c2ccc(O[C@H]3CCC[C@H](C(=O)O)C3)cc2)nnn1C (racemic)
7. CN(C(=O)OC1CCCC1)c1c(-c2ccc(O[C@H]3CCC[C@H](C(=O)O)C3)cc2)nnn1C (racemic)
8. CN(C(=O)NCc1c(-c2ccc(O[C@H]3CCC[C@H](C(=O)O)C3)c(F)c2)nnn1C)C1CCCC1

(A)
6.52 to 7.30
6.52 to 7.30
6.52 to 7.30
5.00 to 6.52
5.00 to 6.52
6.52 to 7.30
6.52 to 7.30
6.52 to 7.30

Quick one: give me pIC50 for each item below, same order please.
1. CN(C(=O)NCc1c(-c2ccc(O[C@H]3CCC[C@H](C(=O)O)C3)c(C(F)(F)F)n2)nnn1C)C1CCCC1 (racemic)
2. Cn1nnc(-c2ccc(O[C@H]3CCC[C@H](C(=O)O)C3)cc2)c1-c1cn(Cc2ccccc2)c(=O)o1
3. CN(Cc1c(-c2ccc(O[C@H]3CCC[C@H](C(=O)O)C3)cc2)nnn1C)C(=O)OCc1ccccc1
4. Cn1nnc(-c2ccc(O[C@H]3CCC[C@H](C(=O)O)C3)cc2)c1NC(=O)Cc1ccccc1 (racemic)
5. Cn1nnc(-c2ccc(O[C@H]3CCC[C@H](C(=O)O)C3)cc2)c1NCc1ccccc1 (racemic)
6. CN(Cc1ccccc1)C(=O)OCc1c(-c2ccc(OCCC(=O)O)cc2)nnn1C
7. CN(Cc1ccccc1)C(=O)/C=C/c1c(-c2ccc(O[C@H]3CCC[C@H](C(=O)O)C3)cc2)nnn1C (racemic)

(A)
["≥ 7.30", "6.52 to 7.30", "6.52 to 7.30", "5.00 to 6.52", "5.00 to 6.52", "6.52 to 7.30", "6.52 to 7.30"]

Quick one: give me pIC50 for each item below, same order please.
1. CN(C(=O)CCc1nnn(C)c1-c1ccc(O[C@H]2CCC[C@H](C(=O)O)C2)c(C(F)(F)F)n1)C1CCCC1 (racemic)
2. Cn1nnc(-c2ccc(O[C@H]3CCC[C@H](C(=O)O)C3)cc2)c1CNC(=O)C1CCCC1 (racemic)
3. Cn1nnc(-c2ccc(O[C@H]3CCC[C@H](C(=O)O)C3)cc2)c1CNC(=O)/C=C/c1ccccc1 (racemic)
4. Cn1nnc(-c2ccc(O[C@H]3CCC[C@H](C(=O)O)C3)cc2)c1NCC1CCCC1 (racemic)
5. CN(Cc1ccccc1)C(=O)OCc1c(-c2ccc(O[C@H]3CCC[C@H](C(=O)O)C3)o2)nnn1C (racemic)
6. CN(C(=O)CCc1c(-c2ccc(O[C@H]3CCC[C@H](C(=O)O)C3)c(C(F)(F)F)n2)nnn1C)C1CCCC1 (racemic)
7. Cn1nnc(-c2ccc(O[C@H]3CCC[C@H](C(=O)O)C3)cc2)c1CNc1ncc(C2CCCC2)o1 (racemic)

(A)
1. 5.00 to 6.52
2. 6.52 to 7.30
3. 5.00 to 6.52
4. 5.00 to 6.52
5. 5.00 to 6.52
6. ≥ 7.30
7. 5.00 to 6.52
